Documented parasite growth, % of control (lower = inhibition) across a set of compounds
PROTOCOL TEXT: qHTS profiling of the MIPE4 collection as inhibitors of Plasmodium falciparum (DD2) proliferation (Rep 2) (AID 743346)
TEST CONTEXT: P. falciparum Dd2 in erythrocytes, SYBR Green DNA, 72 h; at 28.5 µM
MEASURED ENDPOINT: parasite growth, % of control (lower = inhibition)

INSERT INTO assay_data (compound, measured_value) VALUES
  ('CC(=O)NCC1CN(c2ccc(N3CCOCC3)c(F)c2)C(=O)O1 (stereo not given)', '75.9%'),
  ('CCCC[C@@H]1C[C@@H](C(=O)NC([C@H](C)Cl)[C@H]2O[C@H](S)[C@H](O)[C@@H](O)[C@@H]2O)N(C)C1 (stereo not given in full)', '28%'),
  ('C[C@]1(COc2ccc(N3CCC(Oc4ccc(OC(F)(F)F)cc4)CC3)cc2)Cn2cc([N+](=O)[O-])nc2O1', '90.2%'),
  ('CN(C(=O)OC(C)(C)C)[C@@H](Cc1ccc(O[S+](=O)([O-])c2cccc3cnccc23)cc1)C(=O)N1CCN(C(=O)OCc2ccccc2)CC1', '18.5%'),
  ('C[C@H]1Cc2c([nH]c3cc(Cl)c(F)cc23)[C@@]2(N1)C(=O)Nc1ccc(Cl)cc12', '33.6%'),
  ('CN(C)CCC=C1c2ccccc2COc2ccccc21', '55.1%'),
  ('CCOc1ccc(F)cc1C1(O)C(N)=Nc2ccc(Cl)cc21 (stereo not given)', '8.34%'),
  ('CC(C)(C)OC(=O)N[C@@H](Cc1ccc(O[S+](=O)([O-])c2cccc3cnccc23)cc1)C(=O)Nc1ccc(-c2ccccc2)cc1', '13.9%'),
  ('CC1(C)O[C@@H]2[C@H]3OC(C)(C)O[C@]3(COS(N)(=O)=O)OC[C@H]2O1', '101%'),
  ('CN([C@@H](Cc1ccc(O[S+](=O)([O-])c2cccc3cnccc23)cc1)C(=O)N1CCN(C(=O)OCc2ccccc2)CC1)[S+](=O)([O-])c1cccc2cnccc12', '26.8%');

----------
EXPERIMENTAL TARGET: Cytochrome P450 2D6 (Homo sapiens) (UniProt P10635)
Sequence (P10635 whole entry, looked up): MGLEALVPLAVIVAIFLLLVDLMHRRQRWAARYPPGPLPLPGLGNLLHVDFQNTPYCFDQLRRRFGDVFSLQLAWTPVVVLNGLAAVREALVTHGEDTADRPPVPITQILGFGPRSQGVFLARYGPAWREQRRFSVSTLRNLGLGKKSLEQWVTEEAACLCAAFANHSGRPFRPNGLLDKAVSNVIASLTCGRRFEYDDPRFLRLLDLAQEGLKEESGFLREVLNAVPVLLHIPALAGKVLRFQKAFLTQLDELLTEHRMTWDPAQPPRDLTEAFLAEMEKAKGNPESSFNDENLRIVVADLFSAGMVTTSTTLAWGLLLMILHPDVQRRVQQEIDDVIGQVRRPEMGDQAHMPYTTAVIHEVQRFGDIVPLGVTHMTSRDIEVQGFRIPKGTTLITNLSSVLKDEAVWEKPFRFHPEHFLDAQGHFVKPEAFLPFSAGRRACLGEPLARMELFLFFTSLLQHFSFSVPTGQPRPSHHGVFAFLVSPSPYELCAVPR
PROTOCOL TEXT: qHTS Assay for Inhibitors and Substrates of Cytochrome P450 2D6 (AID 891); note: nearly all actives have a fitted effect of over 60% in size
TEST CONTEXT: recombinant CYP2D6, luciferin-ME EGE luminescence; series mostly up to 11.4 µM
Inconclusive results are not listed. The source made the active and inactive calls. The call rests on the fitted dose curve; in most records, active means well fitted inhibition curve with a large enough effect; inconclusive means small, poorly fitted or top-dose-only effect; inactive means no such curve, though single readings can be large or run the other way.
Classes used: active, inactive

INSERT INTO results (molecule, group_label) VALUES
  ('CC(=O)OCC1OC(C#CC2=CCCCC2)C=CC1OC(C)=O (stereo unspecified)', 'inactive'),
  ('CC(=O)OC[C@@H]1O[C@@H](O/N=C2/C[C@@H](O)[C@@H](O)[C@@H]3[C@@H]4C(=O)N(Cc5ccc6c(c5)OCO6)C(=O)[C@H]4CC[C@H]23)[C@H](OC(C)=O)[C@H](OC(C)=O)[C@@H]1OC(C)=O', 'active'),
  ('COc1cccc([C@H]2Oc3ccc(OC)cc3/C(=N\O[C@@H]3O[C@H](COC(C)=O)[C@H](OC(C)=O)[C@H](OC(C)=O)[C@H]3OC(C)=O)[C@@H]2O)c1', 'active'),
  ('CCOC(=O)CCN1C(=O)[C@H]2[C@H]3[C@H](O)[C@H](O)C/C(=N/O[C@@H]4O[C@@H](COC(C)=O)[C@@H](OC(C)=O)[C@@H](OC(C)=O)[C@H]4OC(C)=O)[C@@H]3CC[C@@H]2C1=O', 'active'),
  ('O=Cc1ccc(OC2C=CC(C#Cc3ccccc3)OC2CO)cc1 (stereo unspecified)', 'inactive'),
  ('CCOC(=O)OCC1OC(c2ccccc2)C=CC1Oc1cccc(N(C)C)c1 (stereo unspecified)', 'inactive'),
  ('O=C(/C=C\c1ccc2c(c1)OCO2)c1ccc(F)cc1', 'active'),
  ('CC(C)CC1OCCC=CC1C (stereo unspecified)', 'inactive'),
  ('COC(=O)C/C=C/C(C)C(OCc1cccc(-c2ccccc2)c1)C1CCCCC1 (stereo unspecified)', 'inactive'),
  ('Cc1cc(C)cc(C#CC2C=CC(Oc3ccc(C4CCCC4)cc3)C(CO)O2)c1 (stereo unspecified)', 'inactive'),
  ('CC(=O)OCC1OC(C#CCCc2ccccc2)C=CC1OC(C)=O (stereo unspecified)', 'inactive'),
  ('CC(=O)OCC1OC(C#Cc2ccccc2)C=CC1OC(C)=O (stereo unspecified)', 'inactive'),
  ('COC(C(C)/C=C/CC(=O)OCCCc1ccccc1)C1CCCCC1 (stereo unspecified)', 'inactive'),
  ('COC(=O)C(/C=C/C(C)Cc1cc(Br)cc(OCc2ccccc2)c1OC)OCc1ccccc1 (stereo unspecified)', 'inactive'),
  ('CC(=O)OCC1OC(C#Cc2ccc(C(C)(C)C)cc2)C=CC1OC(C)=O (stereo unspecified)', 'inactive'),
  ('COc1ccc(OCC2Cc3c(-c4ccccc4)nc4c(c3CO2)CN(CCOc2ccccc2)CC4)cc1 (stereo unspecified)', 'inactive'),
  ('COCC#Cc1ccc(C2NC(C(=O)O)CCC2C)cc1 (stereo unspecified)', 'inactive'),
  ('COc1ccc(O[C@H]2C=C[C@@H](c3ccccc3)O[C@H]2COC(=O)CC/C(C)=N/O[C@@H]2O[C@H](COC(C)=O)[C@H](OC(C)=O)[C@H](OC(C)=O)[C@H]2OC(C)=O)cc1', 'active'),
  ('CC(C)(C)c1ccc(OC2C=CC(C#Cc3ccccc3)OC2CO)cc1 (stereo unspecified)', 'inactive'),
  ('CCCc1cc2c(c(=O)o1)C(O)C1OC1C2=O (stereo unspecified)', 'inactive'),
  ('COC(=O)NC(c1cccs1)C(C(C)=O)C(=O)OC (stereo unspecified)', 'inactive'),
  ('CC1CCC2C(=O)N3C(CCC(C)[C@@H]3c3cccc(N4CCOCC4)c3)C(=O)N2C1c1cccc(Br)c1 (stereo partly specified)', 'inactive'),
  ('COC(=O)C1=C(C)N(Cc2ccccc2)[C@]23O[C@](C(=O)OC)(C(=O)N2C1c1ccccc1)C1CCOC(=O)C13 (stereo partly specified)', 'inactive'),
  ('CCOC(=O)OCC1OC(c2ccccc2)C=CC1OC(=O)OCC (stereo unspecified)', 'inactive'),
  ('COC(=O)NC(CC(C)=O)c1cccc(F)c1 (stereo unspecified)', 'inactive'),
  ('COC1(C#CC2C=CC(OC(C)=O)C(COC(C)=O)O2)CCCCC1 (stereo unspecified)', 'inactive'),
  ('CC(=O)OC[C@H]1O[C@@H](O/N=C(\C)CCN2CCc3nc(-c4ccccc4)c(-c4ccccc4)cc3C2)[C@H](OC(C)=O)[C@@H](OC(C)=O)[C@H]1OC(C)=O', 'active'),
  ('CO[C@@H]1COC(=O)CC=C[C@@H](C)[C@@H]2C=C[C@H](O)[C@@H](COC(=O)[C@H](C)NC(=O)CC=C[C@H]1C)O2', 'inactive'),
  ('C=CCC1(c2ccccc2)Oc2ccc(C)cc2-c2nc3cc(Cl)c(Cl)cc3nc21 (stereo unspecified)', 'inactive'),
  ('CCOC(=O)[C@]1(C(NC(=O)OC)c2cccc(C)c2)CCCC1=O (stereo partly specified)', 'inactive'),
  ('CC(=O)OC[C@@H]1O[C@@H](O/N=C2/C[C@@H](O)[C@@H](O)[C@@H]3[C@@H]4C(=O)N(Cc5ccccc5)C(=O)[C@H]4CC[C@@H]23)[C@H](OC(C)=O)[C@H](OC(C)=O)[C@@H]1OC(C)=O', 'active'),
  ('CCOC(=O)OCC1OC(CCc2ccccc2)CCC1Oc1ccc(OC)cc1 (stereo unspecified)', 'inactive'),
  ('O=C1/C(=C/c2ccccc2)Oc2ccccc21', 'inactive'),
  ('CN(C)c1cccc(OC2C=CC(C#Cc3ccccc3)OC2CO)c1 (stereo unspecified)', 'inactive'),
  ('CC1CCC2C(=O)N3CCCC3C(=O)N2C1c1ccc(Br)cc1 (stereo unspecified)', 'inactive'),
  ('CCOC(=O)OCC1OC(C#CC(C)(C)C)C=CC1OC(=O)OCC (stereo unspecified)', 'inactive');
